Measured values drawn from patent US20230272011A1 for this set.

- measured_target: T1, human serum albumin (human, UniProt P02768 25-609)
- T1 construct: mature; Bought protein; biotinylated in the Octet and HTRF assays; also called HSA; HuSA
- assay_explanation: SPR (Biacore) binding response to HSA at pH 7.4, Affimer at 50 nM; further: unit not given here
observable: binding response

[[record]]
binder = "HSA-41 P57A (designed binder) MIPRGLSEAKPATPEIQEIVDKVKPQLEEKTNETYGKLEAVQYKTQVLANFFQRRWAGSTNYYIKVRAGDNKYMHLKVFNGPWKFRNTDRGADRVLTGYQVDKNKDDELTGFHHHHHH"
numeric_value = 23.2


(I) HSA-41 N87A (designed binder) MIPRGLSEAKPATPEIQEIVDKVKPQLEEKTNETYGKLEAVQYKTQVLANFFQRRWPGSTNYYIKVRAGDNKYMHLKVFNGPWKFRATDRGADRVLTGYQVDKNKDDELTGFHHHHHH
(II) HSA-41 W83A (designed binder) MIPRGLSEAKPATPEIQEIVDKVKPQLEEKTNETYGKLEAVQYKTQVLANFFQRRWPGSTNYYIKVRAGDNKYMHLKVFNGPAKFRNTDRGADRVLTGYQVDKNKDDELTGFHHHHHH
(III) HSA-41 R54A (designed binder) MIPRGLSEAKPATPEIQEIVDKVKPQLEEKTNETYGKLEAVQYKTQVLANFFQARWPGSTNYYIKVRAGDNKYMHLKVFNGPWKFRNTDRGADRVLTGYQVDKNKDDELTGFHHHHHH
In: Endpoint returns the given binders ordered by ascending binding response. As an answer, provide the labels arranged in the order called for.
Out: II, III, I
